Attribution: the supplement of paper PMC10567573

Please go through the items and note down their protein stability index.
B1: CD207 (parent)
chain: MTVEKEAPDAHFTVDKQNISLWPR

- Variants of: B1
- test: protein stability index of a GFP-peptide fusion (GPS, HEK-293T) (PSI 1-6); higher = more stable;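 note: lentivirally expressed fusions sorted by FACS into six bins by GFP to DsRed ratio, PSI derived from sequencing read proportions per bin multiplied by bin number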
- condition details: c terminus: a fixed tail appended
One number for each entry.

Recorded results for 4 variants are shown here.
E6P    3.14
H11D    3.58
I19H    4.29
H11Q    2.95

Required: protein stability index, one value per variant below.
1. M1P
2. V14Y
3. T13Q

result:
[4.17, 2.48, 3.43]

Required: protein stability index, one value per variant below.
1. N18E
2. M1I
3. P23Q

result:
1: 3.34; 2: 2.8; 3: 3.14

Required: protein stability index, one value per variant below.
1. L21D
2. P23Y
3. V3G
4. V14S
5. E4C
6. D9Y

result:
1. 4.22
2. 2.62
3. 3.19
4. 3.81
5. 3.11
6. 2.42

Required: protein stability index, one value per variant below.
1. L21S
2. P8V
3. T13A

result:
1: 3.53; 2: 2.86; 3: 3.53

Required: protein stability index, one value per variant below.
1. D9F
2. F12A
3. V14D

result:
1: 2.37; 2: 3.78; 3: 4.11
